Assay: Cytotoxicity against LPS-stimulated mouse RAW264.7 cells assessed as cell viability at 1 to 25 uM pretreated for 15 mins before LPS challenge measured after 24 hrs by MTT assay
Type: cell-based
Conditions: LPS-stimulated RAW264.7 cells, read-out: Activity
readout: viability at 24 h, up to 25 µM (%)
Kindly answer with a numeric value in %, unit omitted.

IN: Using the record for C=C1[C@@H]2CC[C@H]3[C@]4(C)CCC[C@@](C)(C(=O)OC)[C@H]4CC[C@]3(C2)[C@H]1OC(C)=O , report its viability at 24 h, up to 25 µM.
OUT: 40

IN: Using the record for COC(=O)[C@]1(C)CCC[C@@]2(C)[C@@H]3CC[C@@H]4C[C@@]3(CC[C@@H]21)C[C@]4(C)Cl , report its viability at 24 h, up to 25 µM.
OUT: 82

IN: Using the record for C=C1[C@@H]2CC[C@H]3[C@]4(C)CCC[C@@](C)(C(=O)O)[C@H]4CC[C@]3(C2)[C@H]1O , report its viability at 24 h, up to 25 µM.
OUT: 100

IN: Using the record for C=C1C[C@@]23CC[C@@H]4C(C)(C(=O)O)CCC[C@@]4(C)C2=CC[C@@H]1C3 (some centres undefined) , report its viability at 24 h, up to 25 µM.
OUT: 90

###

Assay: Cytotoxicity against LPS-stimulated mouse RAW264.7 cells assessed as cell viability at 1 to 25 uM pretreated for 15 mins before LPS challenge measured after 24 hrs by MTT assay
Assay type: cell-based
Conditions: LPS-stimulated RAW264.7 cells, read-out: Activity
readout: viability at 24 h, up to 25 µM (%)
Kindly answer with a numeric value in %, unit omitted.

IN: Using the record for COC(=O)[C@]1(C)CCCC2(C)[C@@H]3CC[C@@H]4C[C@@]3(CC[C@@H]21)C[C@@]41CO1 (some centres undefined) , report its viability at 24 h, up to 25 µM.
OUT: 66

IN: Using the record for COC(=O)[C@]1(C)CCC[C@@]2(C)[C@@H]3CC[C@@H]4C[C@@]3(CC[C@@H]21)C[C@]41COS(=O)O1 (some centres undefined) , report its viability at 24 h, up to 25 µM.
OUT: 60

###

Test: Cytotoxicity against LPS-stimulated mouse RAW264.7 cells assessed as cell viability at 1 to 25 uM pretreated for 15 mins before LPS challenge measured after 24 hrs by MTT assay
Assay type: cell-based
Conditions: LPS-stimulated RAW264.7 cells, read-out: Activity
Labelling field: enter fulfilled if recorded viability at 24 h, up to 25 µM is less than 90%. Enter not fulfilled if it equals or exceeds that cut-off.

As a guide, the following entries are already answered.
# compound, assigned_class
data = [
    ("C=C1C[C@@]23CC[C@@H]4[C@](C)(COS(=O)OC[C@]5(C)CCC[C@]6(C)[C@@H]5CC[C@]57CC(=C)[C@H](CC[C@H]56)C7)CCC[C@@]4(C)[C@@H]2CC[C@@H]1C3", "not fulfilled"),
    ("C[C@@]12CCC[C@@](C)(C(=O)OCc3ccccc3)[C@H]1CC[C@@]1(CC(=O)O)CCCC[C@H]12", "not fulfilled"),
    ("COC(=O)[C@]1(C)CCC[C@@]2(C)[C@@H]3CC[C@@H]4C[C@@]3(CC[C@@H]21)[C@@H](OC(C)=O)C4=O", "not fulfilled"),
    ("COC(=O)[C@]1(C)CCC[C@@]2(C)[C@@H]3CC[C@@H]4C[C@@]3(CC[C@@H]21)C[C@@]4(O)CO", "fulfilled"),
    ("C=C1[C@@H]2CC[C@H]3[C@]4(C)CCC[C@@](C)(C(=O)O)[C@H]4CC[C@]3(C2)[C@H]1OC(C)=O", "fulfilled"),
    ("C=C1C[C@@]23CC[C@@H]4[C@](C)(CO)CCC[C@@]4(C)C2=CC[C@@H]1C3", "fulfilled"),
    ("COC(=O)[C@]1(C)CCC[C@@]2(C)[C@@H]3CC[C@@H]4C[C@]3(C=C4C)CC[C@@H]21", "not fulfilled"),
    ("C=C1C(=O)[C@@]23CC[C@@H]4[C@](C)(C(=O)OC)CCC[C@@]4(C)C2=CC[C@@H]1C3", "fulfilled"),
]

IN: Find out if reported viability at 24 h, up to 25 µM for COC(=O)[C@]1(C)CCC[C@@]2(C)[C@@H]3CC[C@@H]4C[C@@]3(CC[C@@H]21)[C@H]1O[C@@]41C is less than 90%
OUT: not fulfilled

IN: Find out if reported viability at 24 h, up to 25 µM for C=C1C[C@@]23CC[C@H]4[C@@](C)(CCC[C@@]4(C)C(=O)O)[C@@H]2CCC1C3 (single isomer, unassigned) [KAURENOIC ACID] is less than 90%
OUT: fulfilled

IN: Find out if reported viability at 24 h, up to 25 µM for COC(=O)[C@]1(C)CCC[C@@]2(C)C3=CC[C@@H]4C[C@@]3(CC[C@H]12)C[C@]4(O)COC(=O)c1ccco1 is less than 90%
OUT: not fulfilled

IN: Find out if reported viability at 24 h, up to 25 µM for C=C1[C@@H]2CC=C3[C@@](CC[C@@H]4[C@](C)(C(=O)OC)CCC[C@@]34C)(C2)[C@H]1O is less than 90%
OUT: fulfilled

IN: Find out if reported viability at 24 h, up to 25 µM for COC(=O)[C@]1(C)CCC[C@@]2(C)C3=CC[C@@H]4C[C@]3(C=C4C=O)CC[C@H]12 is less than 90%
OUT: fulfilled

All figures here come from ChEMBL document CHEMBL1759881.
